Hey, just so you know, these numbers are from PubChem BioAssay (NCI).

Tested on: UO-31 renal
Assay: NCI tumour cell line growth inhibition, 48 h; in the data active means GI50 below about 0.43 µM; inactive means the rest
Form entry, call: pick from 1 = active, -1 = inactive

These solved cases illustrate the format of a correct answer.
Recorded test outcome, item CC([O-])=C1C(=O)c2ccccc2C1=O.CC([O-])=C1C(=O)c2ccccc2C1=O.CC[O-].CC[O-].[Ti+4]
-1

How about Cc1cc(O)c(C2=NN(c3ccc(S(N)(=O)=O)cc3)C(/C=C/c3ccccc3)C2)cc1Cl (configuration not stated) ?
-1

Same read-out for COC(=O)[C@H](Cc1cn(C)cn1)NC(=O)[C@H](C)NC(=O)Nc1cc(C(F)(F)F)cc(C(F)(F)F)c1 ?
-1

What do we get for CN(CCCCCl)P(=O)(OCc1ccc([N+](=O)[O-])o1)OCC1OC(n2cnc([N+](=O)[O-])c2N)C(O)C1O (configuration not stated) ?
-1

New cases:
Recorded test call requested for COc1c(N2CCN(CN3C(=O)C(=O)c4cc(Cl)ccc43)C(C)C2)c(F)cc2c(=O)c(C(=O)O)cn(C3CC3)c12 (configuration not stated)
-1

Also O=[N+]([O-])c1cc([N+](=O)[O-])c(Cl)cc1Cl , if possible.
1

What would you report for CN(C)c1ccc(/C=N/S(=O)(=O)c2ccc(-n3c(-c4ccccc4)nc4c(Br)cc(Br)cc4c3=O)cc2)cc1 ?
-1

###

Tested on: MDA-MB-231 breast
Experiment: NCI tumour cell line growth inhibition, 48 h
metric: TGI (µM)
Numbers only, in µM.

Some solved cases for reference:
What does the record list as TGI for CC(=O)Nc1n[n+]([O-])c2cc(C)ccc2[n+]1[O-] ?
23.4

Consider next the molecule COc1cc(-c2c3c(cc4c2OCO4)[C@@H](Nc2ccc(-c4ccc(-c5ccc(N[C@@H]6c7cc8c(cc7C(c7cc(OC)c(O)c(OC)c7)[C@H]7C(=O)OC[C@H]67)OCO8)cc5)cc4)cc2)[C@H]2COC(=O)[C@@H]2C3)cc(OC)c1O (stereo not given in full) in the same way.
6

Next up: Cc1cc(O)c(C2=NN(c3ccc(S(N)(=O)=O)cc3)C(/C=C/c3ccccc3)C2)cc1Cl (stereo not given)
16.3

In the following, a different molecule is considered.
Returns the measured TGI for the input molecule. Input: CCOC(=O)c1c(SC(=O)c2ccc(OC)cc2)n(-c2ccccc2)c(=S)n(-c2ccccc2)c1=O
81

###

Tested on: EKVX NSCLC
Assay: NCI tumour cell line growth inhibition, 48 h
metric: GI50

So what does the record say about GI50 for CCCCNc1ccc(Nc2ccccc2)cc1 ?
3.53 µM

Would you mind giving GI50 for every compound in the list below?
1. CN(CCC(=O)/C(=C\c1ccccc1)c1ccc(Cl)cc1)Cc1ccccc1
2. O=[N+]([O-])c1cc([N+](=O)[O-])c(Cl)cc1Cl

5.37 µM
1.68 µM

###

Task for the reader: assign each of the following compounds its reported GI50.
Tested on: CCRF-CEM leukemia
Experiment: NCI tumour cell line growth inhibition, 48 h

# count of solved cases: 5
Give CCRF-CEM leukemia GI50 for NC1(Cc2ccc(Cl)cc2)CCN(c2ncnc3[nH]ccc23)CC1
3.05 µM

Try the compound CN(C)c1ccc(/C=N/S(=O)(=O)c2ccc(-n3c(-c4ccccc4)nc4c(Br)cc(Br)cc4c3=O)cc2)cc1
3.22 µM

Note, next up: Cc1nc2cc(Nc3nc(Nc4ccc(F)cc4)nc(N4CCOCC4)n3)ccc2n1Cc1ccccc1
2.75 µM

Same question, COc1ccc(CCN2CCC(CN(C)Cc3cnn(-c4ccccc4)c3)CC2)cc1 this time
21 µM

Next: CC1SC2(CCCCC2)N(NC(=O)c2[nH]c3ccc(Br)cc3c2-c2ccccc2)C1=O (configuration not stated)
7 µM

Record GI50 per entry; entries follow.
1. COc1ccc(-c2csc(NC(=O)CN3CCN(c4cc5c(cc4F)c(=O)c(C(=O)O)cn5C4CC4)CC3)n2)cc1
2. O=C1CC/C(=C/COc2cc(=O)oc3ccccc23)O1
3. O=Cc1ccc(-c2ccc(-c3nc4ccccc4s3)cc2)s1
4. CC(=O)/C=C/c1ccc(OCc2ccc(Cl)cc2)cc1
5. Cc1nc2ccccc2nc1N=Nc1ccccc1
6. CN(CCCCCl)P(=O)(OCc1ccc([N+](=O)[O-])o1)OCC1OC(n2cnc([N+](=O)[O-])c2N)C(O)C1O (configuration not stated)
7. CCCCNc1ccc(Nc2ccccc2)cc1

["3.59 µM", "3.1 µM", "26.5 µM", "577 µM", "25 µM", "> 100 µM", "2.93 µM"]

Parameter requested: GI50. Apply to each item below.
1. CCCCCCCCCCCCCC[n+]1ccc(C)cc1
2. COCCOCCOCc1n(Cc2ccc3ccccc3n2)c2ccccc2[n+]1Cc1ccc2ccccc2n1
3. CC12CCC(CC1)C(C)(C)O2
4. CCCCOC1OC(COC(=O)C(C)C)C(OC(=O)C(C)C)C(O)C1OC1OC(C)C(OC(=O)CCC)C(OC(=O)C(C)C)C1O (configuration not stated)
5. C[C@@H](CO)NC(=O)c1cc(-c2ccc(Cl)cc2)nn(-c2cnn(C)c2)c1=O

0.818 µM
1.78 µM
35.8 µM
10.8 µM
22.1 µM
